Entries and their growth values follow.
- Tested on: SW-620 colon
- procedure.text: NCI-60 one-dose screen, 48 h (100 = growth as untreated, 0 = no growth, -100 = all killed)
- condition.set: 10 µM unless noted
Compounds without any hit were thinned out: in the full panel of roughly 83,000, 20% have a hit. The source made the active and inactive calls. Rule for the calls: active = growth percent below 10; inactive = the rest.

These recorded examples may help you get a feel for the data.
>  <compound>
CCc1nn2c(C)cc(C)nc2c1Cc1ccc(/C=C/CN2CCN(CCOCCOCCN3CCN(C/C=C/c4ccc(Cc5c(CC)nn6c(C)cc(C)nc56)cc4)CC3)CC2)cc1

>  <growth>
-50.4% (active)

$$$$
>  <compound>
N#Cc1cccc(NC(=O)c2cc(-c3ccc(F)cc3F)ccc2O)c1

>  <growth>
13.4% (inactive)

$$$$
>  <compound>
COc1c(N2CC3CCCNC3C2)c(F)cc2c(=O)c(C(=O)N/N=C/c3ccccc3)cn(C3CC3)c12 (stereo not drawn)

>  <growth>
102% (inactive)

$$$$
>  <compound>
COc1cccc(C(=O)Nc2cccc(C#Cc3cccc4[nH]nc(N)c34)c2)c1

>  <growth>
34% (inactive)

$$$$
>  <compound>
CCOC(=O)C(=O)/C(=C\c1ccc(Cl)cc1)C(=O)N1C(=S)NC(=O)C1CC(C)C (stereo not drawn)

>  <growth>
104% (inactive)

$$$$
>  <compound>
C[C@@H](Nc1ncnc2ccc(-c3cnc(Cl)c(NS(C)(=O)=O)c3)cc12)c1ccccc1

>  <growth>
67.7% (inactive)

$$$$

Exam item: For the compound Cc1[nH]c(C(=O)Nc2ccccc2OCc2cccc(C(=O)N3CCC[C@@H](N)C3)c2)c(Cl)c1Cl , what growth is on record?
Marked response: -75.9% (active)

Exam item: Value lookup for growth; key = CCOc1ccccc1NC1=C(Cl)C(=O)c2nc(C)ccc2C1=O
Marked response: -66.7% (active)
